assay: chemical genetic growth profiling, strain panel (AID 1159580);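 further: tested at 20 µM; growth read once vehicle control cultures reached saturation at 30 °C; 1 = growth at the plate median or of vehicle wells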; conditions: S. cerevisiae deletion strains, growth OD, locus YBR009C, strain hhf1, stronger effect = lower value
Screen size: about 5,500 compounds; about 2,000 (36%) were called active. About 18% were inconclusive and are not listed. The list shows a part of the results.
normalized growth strictly less than 1 = 1.0. Otherwise 0.0.

{"compound": "COC1=CC(C)[C@@H]2C[C@H]3OC(=O)C[C@H]4C(C)=C(OC)C(=O)C([C@@]34C)[C@@]2(C)C1=O (stereo partly drawn)", "class label": 1.0}

Now look at this entry.
Challenge: Please state whether normalized growth is below 1 for CC1(C)S[C@@H]2C(N3C(=O)[C@@H](c4ccccc4)NC3(C)C)C(=O)N2[C@H]1C(=O)O (stereo partly drawn)
Response given: 0.0

====

test: chemical genetic growth profiling, strain panel (AID 1159580); details: S. cerevisiae deletion strains, growth OD, locus YLR342W, strain FKS1
The campaign covered roughly 5,500 compounds. About 2,000 (36%) were called active. Not shown: some 18% with an inconclusive outcome. Cut-off read from the data, not from the text of the source: active = normalized growth mostly below about 0.91 (no sharp cut-off); inconclusive = no clear call, values can overlap the other calls; inactive = mostly above about 0.92. This is one part of the list.
Output constraint: value belongs to active, inactive

Example results:
{"chem smiles": "NC(=O)c1ccc([N+](=O)[O-])cc1Cl", "class label": "inactive"}
{"chem smiles": "Cc1cc(N)c2ccccc2[n+]1CCCCCCCCCC[n+]1c(C)cc(N)c2ccccc21", "class label": "active"}
{"chem smiles": "Cc1c(C(N)=O)cc([N+](=O)[O-])cc1[N+](=O)[O-]", "class label": "inactive"}
{"chem smiles": "CN(C)CC[C@H](c1ccc(Cl)cc1)c1ccccn1", "class label": "inactive"}

Here is the next item to consider.
Challenge: Name the outcome recorded for "CO[C@@H]1[C@@H](OC(N)=O)[C@@H](O)[C@H](Oc2ccc3c(O)c(NC(=O)c4ccc(O)c(CC=C(C)C)c4)c(=O)oc3c2C)OC1(C)C" in the assay.
Response given: inactive

====

assay: chemical genetic growth profiling, strain panel (AID 1159580);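 further: tested at 20 µM; growth read once vehicle control cultures reached saturation at 30 °C; 1 = growth at the plate median or of vehicle wells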; settings: S. cerevisiae deletion strains, growth OD, locus YBR229C, strain ROT2, stronger effect = lower value
The campaign covered roughly 5,500 compounds. About 2,000 (36%) were called active. Inconclusive results (about 18%) are left out. The list shows a part of the results.
experimental endpoint: normalized growth
Form field (numeric): enter value without unit.

Use these answered entries as a reference point.
{"compound": "C[C@]12CC[C@H](O)C[C@H]1CCC1C2CC[C@]2(C)[C@@H](C3=CC(=O)OC3)[C@@H](O)C[C@]12O (stereo partly specified)", "normalized growth": 1.02}
{"compound": "C[C@]12CCC3C(CC[C@]4(O)C[C@@H](O)CC[C@]34C=O)[C@@]1(O)CCC2C1=CC(=O)OC1 (stereo partly specified)", "normalized growth": 0.94}

Challenge: Would you kindly share the measured normalized growth for C[C@H]1OC(O[C@H]2[C@@H](O)CC(O[C@H]3[C@@H](O)C[C@H](O[C@H]4CC[C@]5(C)C6CC[C@]7(C)[C@@H](C8=CC(=O)OC8)[C@@H](O)C[C@]7(O)[C@@H]6CC[C@@H]5C4)O[C@@H]3C)O[C@@H]2C)C[C@H](O)C1O (stereo partly specified) ?
Response given: 1.01

Challenge: Using the record for C[C@H]1O[C@@H](O[C@H]2[C@@H](O)C[C@H](O[C@H]3[C@@H](O)C[C@H](O[C@H]4CC[C@]5(C)C6C[C@@H](O)[C@]7(C)[C@@H](C8=CC(=O)OC8)CC[C@]7(O)C6CC[C@@H]5C4)O[C@@H]3C)O[C@@H]2C)C[C@H](O)[C@@H]1O (stereo partly specified) , report its normalized growth.
Response given: 1

Challenge: I would be grateful if you could share the reported normalized growth for CC12CCC3C(CCC4(O)CC(O)CCC34/C=N/NC(N)=O)C1(O)CCC2C1=CC(=O)OC1 (stereo unspecified) .
Response given: 1.02

Challenge: # input compound: CC(=O)OC1CC[C@@]2(C)C(CCC3C2CC[C@]2(C)C(C4=CC(=O)OC4)C(OC(C)=O)CC32O)C1 (stereo partly specified) ; wanted: its normalized growth
Response given: 0.997

====

assay: chemical genetic growth profiling, strain panel (AID 1159580);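 further: tested at 20 µM; growth read once vehicle control cultures reached saturation at 30 °C; 1 = growth at the plate median or of vehicle wells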; settings: S. cerevisiae deletion strains, growth OD, locus YLR384C, strain iki3, stronger effect = lower value
About 2,000 (36%) of roughly 5,500 compounds were called active. Inconclusive results (about 18%) are left out. Some of the results follow.
experimental endpoint: normalized growth
Form: value (number only, do not type unit).

Challenge: Name the reported normalized growth value associated with the compound "CC(C)C[C@@H](NC(=O)OCC1c2ccccc2-c2ccccc21)C(=O)O"
Response given: 0.991

Challenge: Query (compound): "O=C1CC2(CCCC2)CC(=O)N1CCCCN1CCN(c2ncccn2)CC1" ; field requested: normalized growth
Response given: 0.978

Challenge: Could you tell me which normalized growth is on file for "O=C(CCCN1CCC2(CC1)C(=O)NCN2c1ccccc1)c1ccc(F)cc1" ?
Response given: 0.982

Challenge: Please look up its normalized growth: COC(=O)C(N)CS (stereo not given)
Response given: 0.992

Challenge: Form field: reported normalized growth of "O=C(CCCN1CCC(O)(c2ccc(Cl)cc2)CC1)c1ccc(F)cc1"
Response given: 0.999

Challenge: // lookup normalized growth for CC1=CC(=O)C2C(C)(C)CCC[C@]2(C)[C@@]1(O)CCc1ccoc1 (stereo not given in full)
Response given: 0.982

Challenge: Fill blank: measured normalized growth of the compound "COc1cc(-c2cc(=O)c3c(O)c(OC)c(OC)c(OC)c3o2)cc(OC)c1OC" is ____.
Response given: 1.01

====

test: chemical genetic growth profiling, strain panel (AID 1159580);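 further: tested at 20 µM; growth read once vehicle control cultures reached saturation at 30 °C; 1 = growth at the plate median or of vehicle wells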; details: S. cerevisiae deletion strains, growth OD, locus YDL192W, strain arf1
About 2,000 (36%) of roughly 5,500 compounds were called active. Not shown: some 18% with an inconclusive outcome. Cut-off read from the data, not from the text of the source: active = normalized growth mostly below about 0.91 (no sharp cut-off); inconclusive = no clear call, values can overlap the other calls; inactive = mostly above about 0.92. The list shows a part of the results.
Thanks in advance; please answer with one of these: 1.0 = active, 0.0 = inactive

Examples from the recorded data:
{"compound": "NC[C@@H]1O[C@H](O[C@@H]2[C@@H](CO)OC(O[C@@H]3[C@@H](O)[C@H](N)C[C@H](N)[C@H]3O[C@H]3O[C@H](CO)[C@@H](O)[C@H](O)[C@H]3N)[C@@H]2O)[C@H](N)[C@@H](O)[C@@H]1O (some centres not stated)", "class label": 0.0}
{"compound": "C[C@]12CCC(=O)C=C1CCc1ccc(O)cc12", "class label": 0.0}
{"compound": "COC(=O)NC(=S)Nc1ccccc1NC(=S)NC(=O)OC", "class label": 0.0}

Challenge: Assay result, entry "O=C(O)c1ccccc1O" — outcome?
Response given: 0.0

Challenge: Tell me the recorded outcome of this test for "COC(=O)[C@H]1[C@H]2C[C@H]3c4[nH]c5cc(OC)ccc5c4CCN3C[C@H]2C[C@@H](OC(=O)c2cc(OC)c(OC)c(OC)c2)[C@@H]1OC" .
Response given: 0.0

Challenge: Could you kindly confirm the outcome this assay logged for "CC1=CC(=O)C(C(C)C)=CC1=O" ?
Response given: 1.0

Challenge: GET /call?item= C[C@]12CC[C@H](O)C[C@H]1CCC1C2CC[C@]2(C)[C@@H](C3=CC(=O)OC3)[C@@H](O)C[C@]12O (some centres not stated) returns the recorded outcome of this test.
Response given: 0.0

Challenge: Hi team, can someone confirm the assay call for "O=C(CCCN1CCC2(CC1)C(=O)NCN2c1ccccc1)c1ccc(F)cc1" ?
Response given: 0.0

Challenge: Called result for "O=C(/C=C(\O)c1ccccc1)c1ccccc1O"
Response given: 1.0

Challenge: Please state the recorded outcome for this compound: CCC(=O)O[C@]1(C(=O)CCl)[C@@H](C)CC2C3CCC4=CC(=O)C=C[C@]4(C)[C@@]3(F)[C@@H](O)C[C@@]21C (some centres not stated)
Response given: 0.0

Challenge: # fetch the recorded call for CCCCC(=O)O[C@]1(C(=O)CO)[C@@H](C)CC2C3CCC4=CC(=O)C=C[C@]4(C)[C@@]3(F)C(O)C[C@@]21C (some centres not stated) here
Response given: 0.0

Challenge: Short answer needed: outcome of this test for CCC(=O)OCC(=O)[C@@]1(OC(=O)CC)[C@@H](C)CC2C3CCC4=CC(=O)C=C[C@]4(C)C3(F)[C@@H](O)C[C@@]21C (some centres not stated) ?
Response given: 0.0

Challenge: # lookup: test call for CC1CCCC(C)N1NC(=O)c1ccc(Cl)c(S(N)(=O)=O)c1 (configuration not stated)
Response given: 0.0

Challenge: State the result this test recorded for "NC[C@H]1O[C@H](O[C@H]2[C@H](O)[C@@H](O[C@H]3O[C@H](CO)[C@@H](O)[C@H](N)[C@H]3O)[C@H](N)C[C@@H]2N)[C@H](N)[C@@H](O)[C@@H]1O" .
Response given: 0.0

Challenge: Recorded test outcome, item "NC(=O)c1ccccc1O"
Response given: 0.0

Challenge: Recorded test call requested for "Nc1nc(/C(=C/CC(=O)O)C(=O)N[C@@H]2C(=O)N3C(C(=O)O)=CCS[C@H]23)cs1"
Response given: 0.0

Challenge: // return assay outcome for "COc1cccc2c1CCC1=CC(=O)CC[C@@]12C"
Response given: 0.0
